Measured values drawn from the supplement of paper PMC6125532 for this set.

For each entry below, report its MIC (REMA) value.
- Test system: Mycobacterium tuberculosis CRY-5; CRY-10
Write the number in µg/mL without appending the unit.

Form: item NC[C@H]1O[C@H](O[C@H]2[C@H](O)[C@@H](O[C@H]3O[C@H](CO)[C@@H](O)[C@H](N)[C@H]3O)[C@H](N)C[C@@H]2N)[C@H](O)[C@@H](O)[C@@H]1O [Kanamycin] ; test system Mycobacterium tuberculosis CRY-5; CRY-10; MIC (REMA): 0.5

Form: item NCC[C@H](O)C(=O)N[C@@H]1C[C@H](N)[C@@H](O[C@H]2O[C@H](CN)[C@@H](O)[C@H](O)[C@H]2O)[C@H](O)[C@H]1O[C@H]1O[C@H](CO)[C@@H](O)[C@H](N)[C@H]1O [Amikacin] ; test system Mycobacterium tuberculosis CRY-5; CRY-10; MIC (REMA): 0.25

----------
Consider compounds characterized by their MIC (REMA) with Mycobacterium tuberculosis CRY-23.
Write the number in µg/mL without appending the unit.

Entry CC(C)/N=c1\cc2n(-c3ccc(Cl)cc3)c3ccccc3nc-2cc1Nc1ccc(Cl)cc1 [Clofazimine] ; MIC (REMA) = 0.008

Entry NCC[C@H](O)C(=O)N[C@@H]1C[C@H](N)[C@@H](O[C@H]2O[C@H](CN)[C@@H](O)[C@H](O)[C@H]2O)[C@H](O)[C@H]1O[C@H]1O[C@H](CO)[C@@H](O)[C@H](N)[C@H]1O [Amikacin] ; MIC (REMA) = 0.125

Entry NC[C@H]1O[C@H](O[C@H]2[C@H](O)[C@@H](O[C@H]3O[C@H](CO)[C@@H](O)[C@H](N)[C@H]3O)[C@H](N)C[C@@H]2N)[C@H](O)[C@@H](O)[C@@H]1O [Kanamycin] ; MIC (REMA) = 0.5

Entry CC(=O)NC[C@H]1CN(c2ccc(N3CCOCC3)c(F)c2)C(=O)O1 [Linezolid] ; MIC (REMA) = 0.25

Entry C[C@H]1COc2c(N3CCN(C)CC3)c(F)cc3c(=O)c(C(=O)O)cn1c23 [Levofloxacin] ; MIC (REMA) = 0.06

----------
Consider compounds characterized by their MIC (REMA) with Mycobacterium tuberculosis CRY-26.
Write the number in µg/mL without appending the unit.

Entry `NNC(=O)c1ccncc1` ; MIC (REMA) = 0.03

Entry `C[C@H]1COc2c(N3CCN(C)CC3)c(F)cc3c(=O)c(C(=O)O)cn1c23` ; MIC (REMA) = 0.25

Entry `COc1c(N2C[C@@H]3CCCN[C@@H]3C2)c(F)cc2c(=O)c(C(=O)O)cn(C3CC3)c12` ; MIC (REMA) = 0.03

Entry `CC(=O)NC[C@H]1CN(c2ccc(N3CCOCC3)c(F)c2)C(=O)O1` ; MIC (REMA) = 0.25

Entry `NC[C@H]1O[C@H](O[C@H]2[C@H](O)[C@@H](O[C@H]3O[C@H](CO)[C@@H](O)[C@H](N)[C@H]3O)[C@H](N)C[C@@H]2N)[C@H](O)[C@@H](O)[C@@H]1O` ; MIC (REMA) = 1

Entry `CO[C@H]1/C=C/O[C@@]2(C)Oc3c(C)c(O)c4c(O)c(c(/C=N/N5CCN(C)CC5)c(O)c4c3C2=O)NC(=O)/C(C)=C\C=C\[C@H](C)[C@H](O)[C@@H](C)[C@@H](O)[C@@H](C)[C@H](OC(C)=O)[C@@H]1C` ; MIC (REMA) = 0.015

Entry `CC(C)/N=c1\cc2n(-c3ccc(Cl)cc3)c3ccccc3nc-2cc1Nc1ccc(Cl)cc1` ; MIC (REMA) = 0.06

Entry `COc1nc2ccc(Br)cc2cc1[C@@H](c1ccccc1)[C@@](O)(CCN(C)C)c1cccc2ccccc12` ; MIC (REMA) = 0.03

Entry `CC[C@@H](CO)NCCN[C@@H](CC)CO` ; MIC (REMA) = 0.5

Entry `C[C@]1(COc2ccc(N3CCC(Oc4ccc(OC(F)(F)F)cc4)CC3)cc2)Cn2cc([N+](=O)[O-])nc2O1` ; MIC (REMA) = 0.015
